Listed below: logD values for each entry.
experiment: physchem; details: buffer, pH 7.4
Please reply with the number alone, leaving off any unit.

NS(=O)(=O)c1cc(C2(O)NC(=O)c3ccccc32)ccc1Cl (stereo not drawn): 0.85
CCN(CC)CCNC(=O)c1ccc(N)cc1 [PROCAINAMIDE]: -0.94
CCN(CC)CCNC(=O)c1cc(S(C)(=O)=O)ccc1OC [TIAPRIDE]: -0.9
CC(C)N(CC[C@](C(N)=O)(c1ccccc1)c1ccccn1)C(C)C [(S)-DISOPYRAMIDE]: 0.39
CNC(=C[N+](=O)[O-])NCCSCc1ccc(CN(C)C)o1: -0.99

Need logD of CC(=O)Nc1ccc(O)cc1 , thanks.
0.27

Need logD of CN/C(=N/CCSCc1nc[nH]c1C)NC#N , thanks.
0.29

Need logD of CC(=O)OCC(=O)[C@@]1(O)CC[C@H]2[C@@H]3CCC4=CC(=O)CC[C@]4(C)[C@H]3[C@@H](O)C[C@@]21C [HYDROCORTISONE ACETATE] , thanks.
2.11

* * *

assay: physchem; settings: buffer, pH 7.4
The label is 1 (yes) for logD below 0.5 and 0 (no) for logD equal to or exceeding 0.5.

CCN(CC)CCNC(=O)c1ccc(N)cc1 [PROCAINAMIDE]: 1 (yes)
CCN(CC)CCNC(=O)c1cc(S(C)(=O)=O)ccc1OC [TIAPRIDE]: 1 (yes)
NS(=O)(=O)c1cc(C2(O)NC(=O)c3ccccc32)ccc1Cl (stereo not drawn) [CHLORTHALIDONE]: 0 (no)

Find out if reported logD for CN/C(=N/CCSCc1nc[nH]c1C)NC#N [CIMETIDINE] is less than 0.5
1 (yes)

Find out if reported logD for CC(C)N(CC[C@](C(N)=O)(c1ccccc1)c1ccccn1)C(C)C [(S)-DISOPYRAMIDE] is less than 0.5
0 (no)

Find out if reported logD for CNC(=C[N+](=O)[O-])NCCSCc1ccc(CN(C)C)o1 [RANITIDINE] is less than 0.5
1 (yes)

Find out if reported logD for CC(=O)OCC(=O)[C@@]1(O)CC[C@H]2[C@@H]3CCC4=CC(=O)CC[C@]4(C)[C@H]3[C@@H](O)C[C@@]21C [HYDROCORTISONE ACETATE] is less than 0.5
0 (no)

Find out if reported logD for CC(=O)Nc1ccc(O)cc1 [ACETAMINOPHEN] is less than 0.5
1 (yes)
